From: patent US20080076050A1

Entries and their Solubility in Tetrahydrofuran
assay: Solubility in organic solvents; type: physicochemical; conditions: 25° C.; amount of solute (g) based on 100 ml of solvent; tetrahydrofuran
State the answer as a number, implicitly in g/100 ml.

Q) Bench note: what Solubility in Tetrahydrofuran did Cc1ccc(N(c2ccc(-c3ccc(-c4ccc(N(c5ccc(C)cc5)c5ccc6c(c5)CCC6)cc4)cc3)cc2)c2ccc3c(c2)CCC3)cc1 show?
A) 20.8

Q) Can you look up the measured Solubility in Tetrahydrofuran of Cc1ccc(N(c2ccc(C)cc2)c2ccc(-c3ccc(-c4ccc(N(c5ccc(C)cc5)c5ccc(C)cc5)cc4)cc3)cc2)cc1 for me?
A) 12.4

Q) Given the compound COc1ccc(N(c2ccccc2)c2ccc(-c3ccc(-c4ccc(N(c5ccccc5)c5ccc(OC)cc5C)cc4)cc3)cc2)c(C)c1 , what is its reported Solubility in Tetrahydrofuran?
A) 18.1
